This collection of values is drawn from paper PMC10699557.

Target: HumRadA22
Assay: ITC
Endpoint: pKd
Here pKd is given on a logarithmic scale as minus log10 of the concentration in mol/L.

Report pKd for RRRRRRRRRGCSGFSTASGKKLNVSTQACQKAVKLFSG (stapled (linker not stated for SP31)) [SP31] please.
7.36
